// provenance: ChEMBL document CHEMBL5247625

TARGET OR SYSTEM: Protein cereblon/Tyrosine-protein kinase ABL1/Breakpoint cluster region protein (Homo sapiens, UniProt P00519+P11274+Q96SW2)
Sequence (P00519 whole entry, looked up): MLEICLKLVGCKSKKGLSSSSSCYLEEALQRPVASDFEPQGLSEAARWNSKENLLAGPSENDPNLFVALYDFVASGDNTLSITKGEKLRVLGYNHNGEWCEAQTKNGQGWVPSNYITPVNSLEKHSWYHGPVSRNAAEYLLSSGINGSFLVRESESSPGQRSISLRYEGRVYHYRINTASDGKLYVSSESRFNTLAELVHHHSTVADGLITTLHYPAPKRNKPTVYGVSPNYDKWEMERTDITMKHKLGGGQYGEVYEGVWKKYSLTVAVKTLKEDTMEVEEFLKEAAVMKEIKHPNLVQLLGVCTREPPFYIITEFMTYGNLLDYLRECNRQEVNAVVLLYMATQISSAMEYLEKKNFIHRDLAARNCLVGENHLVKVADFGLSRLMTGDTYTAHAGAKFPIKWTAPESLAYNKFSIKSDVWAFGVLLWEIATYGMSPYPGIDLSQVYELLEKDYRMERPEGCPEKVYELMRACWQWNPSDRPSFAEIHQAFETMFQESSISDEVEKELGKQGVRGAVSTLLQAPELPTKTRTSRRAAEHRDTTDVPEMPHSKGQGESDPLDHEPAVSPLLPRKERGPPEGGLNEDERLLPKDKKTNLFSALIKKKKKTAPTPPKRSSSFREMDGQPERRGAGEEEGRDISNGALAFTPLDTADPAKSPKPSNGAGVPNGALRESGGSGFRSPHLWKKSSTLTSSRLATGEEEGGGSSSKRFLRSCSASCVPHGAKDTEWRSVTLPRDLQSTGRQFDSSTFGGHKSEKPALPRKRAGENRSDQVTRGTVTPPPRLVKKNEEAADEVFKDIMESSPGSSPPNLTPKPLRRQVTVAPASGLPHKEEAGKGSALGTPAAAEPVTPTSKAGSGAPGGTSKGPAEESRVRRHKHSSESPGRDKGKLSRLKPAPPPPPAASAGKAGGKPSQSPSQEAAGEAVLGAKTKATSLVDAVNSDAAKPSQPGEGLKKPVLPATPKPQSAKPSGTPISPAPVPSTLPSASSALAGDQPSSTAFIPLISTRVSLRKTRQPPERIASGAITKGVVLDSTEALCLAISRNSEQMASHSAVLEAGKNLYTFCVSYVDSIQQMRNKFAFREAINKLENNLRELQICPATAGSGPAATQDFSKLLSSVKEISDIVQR
Sequence (P11274 whole entry, looked up): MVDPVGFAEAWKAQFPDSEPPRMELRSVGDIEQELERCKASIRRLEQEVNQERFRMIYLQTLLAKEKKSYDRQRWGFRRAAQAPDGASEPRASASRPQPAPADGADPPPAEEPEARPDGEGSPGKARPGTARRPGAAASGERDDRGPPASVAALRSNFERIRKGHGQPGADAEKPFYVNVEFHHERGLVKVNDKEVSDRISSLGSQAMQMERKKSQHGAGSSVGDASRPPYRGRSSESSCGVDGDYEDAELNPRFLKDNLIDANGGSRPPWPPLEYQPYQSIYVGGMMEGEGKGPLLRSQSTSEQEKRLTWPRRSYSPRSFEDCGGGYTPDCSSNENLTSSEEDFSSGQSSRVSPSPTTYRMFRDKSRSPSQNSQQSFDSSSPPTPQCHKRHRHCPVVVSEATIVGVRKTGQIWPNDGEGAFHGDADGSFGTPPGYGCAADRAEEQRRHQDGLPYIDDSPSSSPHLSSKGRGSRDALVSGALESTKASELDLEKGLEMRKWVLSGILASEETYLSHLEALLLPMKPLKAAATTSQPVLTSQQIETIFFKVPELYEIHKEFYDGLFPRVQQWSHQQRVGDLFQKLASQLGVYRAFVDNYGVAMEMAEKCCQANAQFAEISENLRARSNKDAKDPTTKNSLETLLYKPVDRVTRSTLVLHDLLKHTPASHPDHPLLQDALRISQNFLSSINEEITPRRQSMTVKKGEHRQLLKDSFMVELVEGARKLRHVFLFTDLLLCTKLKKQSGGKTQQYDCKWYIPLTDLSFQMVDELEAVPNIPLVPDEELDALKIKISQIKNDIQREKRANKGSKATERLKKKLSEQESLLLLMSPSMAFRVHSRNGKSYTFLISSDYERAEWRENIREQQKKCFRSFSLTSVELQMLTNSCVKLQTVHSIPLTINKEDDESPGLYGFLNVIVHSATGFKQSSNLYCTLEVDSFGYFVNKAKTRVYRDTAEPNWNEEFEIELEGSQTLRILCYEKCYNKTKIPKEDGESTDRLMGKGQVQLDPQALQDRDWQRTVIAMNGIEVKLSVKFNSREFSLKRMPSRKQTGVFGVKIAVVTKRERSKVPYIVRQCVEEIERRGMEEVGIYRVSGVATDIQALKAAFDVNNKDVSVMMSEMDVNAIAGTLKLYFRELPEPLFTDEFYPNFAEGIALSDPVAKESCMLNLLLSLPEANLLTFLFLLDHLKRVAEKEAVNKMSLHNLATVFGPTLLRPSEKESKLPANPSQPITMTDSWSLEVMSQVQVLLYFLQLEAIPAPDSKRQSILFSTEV
Sequence (Q96SW2 whole entry, looked up): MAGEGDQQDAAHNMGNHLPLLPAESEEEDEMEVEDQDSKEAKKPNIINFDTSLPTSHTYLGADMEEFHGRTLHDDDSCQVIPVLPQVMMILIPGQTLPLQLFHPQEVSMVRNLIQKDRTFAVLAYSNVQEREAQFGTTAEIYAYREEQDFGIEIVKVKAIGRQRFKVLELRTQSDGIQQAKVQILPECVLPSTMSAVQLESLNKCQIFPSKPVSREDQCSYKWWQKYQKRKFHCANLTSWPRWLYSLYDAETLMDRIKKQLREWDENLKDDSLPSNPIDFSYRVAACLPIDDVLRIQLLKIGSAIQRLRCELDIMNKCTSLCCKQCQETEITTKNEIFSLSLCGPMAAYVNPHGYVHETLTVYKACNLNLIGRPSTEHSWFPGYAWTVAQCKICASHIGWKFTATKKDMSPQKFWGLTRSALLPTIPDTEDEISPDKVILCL
TEST METHOD NOTES: Protac activity at CRBN/BCR-ABL in human K562 cells assessed as increase in BCR-ABL degradation at 100 nM by Western blotting analysis
Type: cell-based
ASSAY READOUT: Activity (%)

Guide cases for Activity, answers given:
O=C1CCC(N2Cc3c(SCCCCCN4CCN(C5CCN(c6ncc(C(=O)Nc7ccc(OC(F)(F)Cl)cc7)cc6-c6ccn[nH]6)CC5)CC4)cccc3C2=O)C(=O)N1 (stereo not drawn); 37.1
O=C1CCC(N2Cc3c(SCCCCCCNC4CCN(c5ncc(C(=O)Nc6ccc(OC(F)(F)Cl)cc6)cc5-c5ccn[nH]5)CC4)cccc3C2=O)C(=O)N1 (stereo not drawn); 70.9
O=C1CCC(N2Cc3c(SCCCCNC4CCN(c5ncc(C(=O)Nc6ccc(OC(F)(F)Cl)cc6)cc5-c5ccn[nH]5)CC4)cccc3C2=O)C(=O)N1 (stereo not drawn); 41.6
O=C1CCC(N2C(=O)c3cccc(SCCCCN4CCN(C5CCN(c6ncc(C(=O)Nc7ccc(OC(F)(F)Cl)cc7)cc6-c6ccn[nH]6)CC5)CC4)c3C2=O)C(=O)N1 (stereo not drawn); 70.9

a = O=C1CCC(N2Cc3c(SCCCCN4CCN(C5CCN(c6ncc(C(=O)Nc7ccc(OC(F)(F)Cl)cc7)cc6-c6ccn[nH]6)CC5)CC4)cccc3C2=O)C(=O)N1 (stereo not drawn)
b = O=C1CCC(N2Cc3c(SCCCN4CCN(c5ncc(C(=O)Nc6ccc(OC(F)(F)Cl)cc6)cc5-c5ccn[nH]5)CC4)cccc3C2=O)C(=O)N1 (stereo not drawn)
c = O=C1CCC(N2Cc3c(SCCCCNc4ncc(C(=O)Nc5ccc(OC(F)(F)Cl)cc5)cc4-c4ccn[nH]4)cccc3C2=O)C(=O)N1 (stereo not drawn)
Sort these compounds on Activity so the largest reading comes first. Returns: the labels arranged in the requested order. a, b, c

----------
TARGET OR SYSTEM: UniProt:P00519
TEST METHOD NOTES: Binding affinity to recombinant ABL (unknown origin)
ASSAY READOUT: Kd (µM)
Unit µM implied. Number only.

Give me measured Kd, please, for this compound: O=C1CCC(N2Cc3c(SCCCCCCN4CCN(C5CCN(c6ncc(C(=O)Nc7ccc(OC(F)(F)Cl)cc7)cc6-c6ccn[nH]6)CC5)CC4)cccc3C2=O)C(=O)N1 (stereo unspecified) 4.74

----------
TARGET OR SYSTEM: Protein cereblon/Tyrosine-protein kinase ABL1/Breakpoint cluster region protein (Homo sapiens, UniProt P00519+P11274+Q96SW2)
TEST METHOD NOTES: Protac activity at CRBN/BCR-ABL in human K562 cells assessed as increase in BCR-ABL degradation at 5 nM by Western blotting analysis
Assay type: cell-based
ASSAY READOUT: Activity (%)

O=C1CCC(N2Cc3c(OCCCCN4CCN(c5ncc(C(=O)Nc6ccc(OC(F)(F)Cl)cc6)cc5-c5ccn[nH]5)CC4)cccc3C2=O)C(=O)N1 (stereo not drawn); 30.6

P = O=C1CCC(N2Cc3c(SCCCCCNc4ncc(C(=O)Nc5ccc(OC(F)(F)Cl)cc5)cc4-c4ccn[nH]4)cccc3C2=O)C(=O)N1 (stereo not drawn)
Q = O=C1CCC(N2Cc3c(SCCCCCN4CCN(C5CCN(c6ncc(C(=O)Nc7ccc(OC(F)(F)Cl)cc7)cc6-c6ccn[nH]6)CC5)CC4)cccc3C2=O)C(=O)N1 (stereo not drawn)
R = O=C1CCC(N2C(=O)c3cccc(SCCCCN4CCN(C5CCN(c6ncc(C(=O)Nc7ccc(OC(F)(F)Cl)cc7)cc6-c6ccn[nH]6)CC5)CC4)c3C2=O)C(=O)N1 (stereo not drawn)
S = O=C1CCC(N2Cc3c(SCCCCNc4ncc(C(=O)Nc5ccc(OC(F)(F)Cl)cc5)cc4-c4ccn[nH]4)cccc3C2=O)C(=O)N1 (stereo not drawn)
Your job: order these 4 records by Activity, ascending. List each label, following the requested order. S, P, Q, R

----------
System: K562
TEST METHOD NOTES: cells
RUN CONDITIONS: Homo sapiens, K562, 48 h
Description: Antiproliferative activity against human K562 cells assessed as inhibition of cell growth incubated for 2 days by CCK8 assay
pIC50: −log10 of the molar value.
ASSAY READOUT: pIC50

Some entries whose results are on file:
O=C1CCC(N2C(=O)c3cccc(SCCCCN4CCN(C5CCN(c6ncc(C(=O)Nc7ccc(OC(F)(F)Cl)cc7)cc6-c6ccn[nH]6)CC5)CC4)c3C2=O)C(=O)N1 (stereo not given); 6.77
O=C1CCC(N2Cc3c(SCCCCCNc4ncc(C(=O)Nc5ccc(OC(F)(F)Cl)cc5)cc4-c4ccn[nH]4)cccc3C2=O)C(=O)N1 (stereo not given); 6.25
O=C1CCC(N2C(=O)c3cccc(NCCCC(=O)N4CCN(c5ncc(C(=O)Nc6ccc(OC(F)(F)Cl)cc6)cc5-c5ccn[nH]5)CC4)c3C2=O)C(=O)N1 (stereo not given); 6.89
O=C1CCC(N2Cc3c(NCCCC(=O)N4CCN(c5ncc(C(=O)Nc6ccc(OC(F)(F)Cl)cc6)cc5-c5ccn[nH]5)CC4)cccc3C2=O)C(=O)N1 (stereo not given); 6.18
O=C1CCC(N2C(=O)c3cccc(SCCCC(=O)N4CCN(c5ncc(C(=O)Nc6ccc(OC(F)(F)Cl)cc6)cc5-c5ccn[nH]5)CC4)c3C2=O)C(=O)N1 (stereo not given); 6.28

I = O=C1CCC(N2Cc3c(SCCCCCCCN4CCN(C5CCN(c6ncc(C(=O)Nc7ccc(OC(F)(F)Cl)cc7)cc6-c6ccn[nH]6)CC5)CC4)cccc3C2=O)C(=O)N1 (stereo not given)
II = O=C1CCC(N2Cc3c(SCCCCCN4CCN(C5CCN(c6ncc(C(=O)Nc7ccc(OC(F)(F)Cl)cc7)cc6-c6ccn[nH]6)CC5)CC4)cccc3C2=O)C(=O)N1 (stereo not given)
III = O=C1CCC(N2C(=O)c3cccc(NCCCCCCC(=O)N4CCN(c5ncc(C(=O)Nc6ccc(OC(F)(F)Cl)cc6)cc5-c5ccn[nH]5)CC4)c3C2=O)C(=O)N1 (stereo not given)
Your job: order these 3 records by pIC50, ascending. In plain terms: list the labels in the order you were asked to. III, I, II
(III: 6.42, I: 7.33, II: 7.64)

I = O=C1CCC(N2Cc3c(SCCCCN4CCN(c5ncc(C(=O)Nc6ccc(OC(F)(F)Cl)cc6)cc5-c5ccn[nH]5)CC4)cccc3C2=O)C(=O)N1 (stereo not given)
II = O=C1CCC(N2Cc3c(OCCCCN4CCN(c5ncc(C(=O)Nc6ccc(OC(F)(F)Cl)cc6)cc5-c5ccn[nH]5)CC4)cccc3C2=O)C(=O)N1 (stereo not given)
Please choose the item with the lower pIC50 value from this pair: I and II Provide the label of your selected option as the answer. II
(II: 7.17, I: 7.52)

a = O=C1CCC(N2Cc3c(C#CCCCCCCN4CCN(C5CCN(c6ncc(C(=O)Nc7ccc(OC(F)(F)Cl)cc7)cc6-c6ccn[nH]6)CC5)CC4)cccc3C2=O)C(=O)N1 (stereo not given)
b = O=C1CCC(N2C(=O)c3cccc(NCC(=O)N4CCN(c5ncc(C(=O)Nc6ccc(OC(F)(F)Cl)cc6)cc5-c5ccn[nH]5)CC4)c3C2=O)C(=O)N1 (stereo not given)
c = O=C1CCC(N2Cc3c(SCCCCCCN4CCN(c5ncc(C(=O)Nc6ccc(OC(F)(F)Cl)cc6)cc5-c5ccn[nH]5)CC4)cccc3C2=O)C(=O)N1 (stereo not given)
d = O=C1CCC(N2Cc3c(OCCCC(=O)N4CCN(c5ncc(C(=O)Nc6ccc(OC(F)(F)Cl)cc6)cc5-c5ccn[nH]5)CC4)cccc3C2=O)C(=O)N1 (stereo not given)
List the 4 entries from lowest pIC50 to highest pIC50 value. Form field (ranking): labels in requested order. d, b, c, a

1 = O=C1CCC(N2Cc3c(SCCCC(=O)N4CCN(c5ncc(C(=O)Nc6ccc(OC(F)(F)Cl)cc6)cc5-c5ccn[nH]5)CC4)cccc3C2=O)C(=O)N1 (stereo not given)
2 = O=C1CCC(N2Cc3c(SCCCCNC4CCN(c5ncc(C(=O)Nc6ccc(OC(F)(F)Cl)cc6)cc5-c5ccn[nH]5)CC4)cccc3C2=O)C(=O)N1 (stereo not given)
3 = O=C1CCC(N2Cc3c(SCCCCN4CCN(C5CCN(c6ncc(C(=O)Nc7ccc(OC(F)(F)Cl)cc7)cc6-c6ccn[nH]6)CC5)CC4)cccc3C2=O)C(=O)N1 (stereo not given)
4 = O=C1CCC(N2C(=O)c3cccc(NCCCCCC(=O)N4CCN(c5ncc(C(=O)Nc6ccc(OC(F)(F)Cl)cc6)cc5-c5ccn[nH]5)CC4)c3C2=O)C(=O)N1 (stereo not given)
hey, can you rank those compounds up there by pIC50? biggest number first please I would appreciate it if you listed the labels in the requested order. 3, 1, 4, 2
(3: 7.46, 1: 6.98, 4: 6.73, 2: 6.49)

----------
System: K562
TEST METHOD NOTES: cells
RUN CONDITIONS: Homo sapiens, K562, 48 h
ASSAY READOUT: IC50 (nM)

Observe how each entry below is paired with its result.
O=C1CCC(N2C(=O)c3cccc(C#CCCCC(=O)N4CCN(c5ncc(C(=O)Nc6ccc(OC(F)(F)Cl)cc6)cc5-c5ccn[nH]5)CC4)c3C2=O)C(=O)N1 (stereo not given); 278
O=C1CCC(N2C(=O)c3cccc(NCCOCCOCCOCCOCCC(=O)N4CCN(c5ncc(C(=O)Nc6ccc(OC(F)(F)Cl)cc6)cc5-c5ccn[nH]5)CC4)c3C2=O)C(=O)N1 (stereo not given); 886
O=C1CCC(N2Cc3c(SCCCCCCN4CCN(C5CCN(c6ncc(C(=O)Nc7ccc(OC(F)(F)Cl)cc7)cc6-c6ccn[nH]6)CC5)CC4)cccc3C2=O)C(=O)N1 (stereo not given); 12
O=C1CCC(N2Cc3c(SCCCCCCNc4ncc(C(=O)Nc5ccc(OC(F)(F)Cl)cc5)cc4-c4ccn[nH]4)cccc3C2=O)C(=O)N1 (stereo not given); 1960
O=C1CCC(N2Cc3c(SCCCN4CCN(C5CCN(c6ncc(C(=O)Nc7ccc(OC(F)(F)Cl)cc7)cc6-c6ccn[nH]6)CC5)CC4)cccc3C2=O)C(=O)N1 (stereo not given); 48.5
O=C1CCC(N2Cc3c(OCCCCCCN4CCN(C5CCN(c6ncc(C(=O)Nc7ccc(OC(F)(F)Cl)cc7)cc6-c6ccn[nH]6)CC5)CC4)cccc3C2=O)C(=O)N1 (stereo not given); 66
O=C1CCC(N2C(=O)c3cccc(NCCOCCOCCC(=O)N4CCN(c5ncc(C(=O)Nc6ccc(OC(F)(F)Cl)cc6)cc5-c5ccn[nH]5)CC4)c3C2=O)C(=O)N1 (stereo not given); 1100
O=C1CCC(N2Cc3c(SCCCCCNC4CCN(c5ncc(C(=O)Nc6ccc(OC(F)(F)Cl)cc6)cc5-c5ccn[nH]5)CC4)cccc3C2=O)C(=O)N1 (stereo not given); 978

A = O=C1CCC(N2C(=O)c3cccc(NCCCCC(=O)N4CCN(c5ncc(C(=O)Nc6ccc(OC(F)(F)Cl)cc6)cc5-c5ccn[nH]5)CC4)c3C2=O)C(=O)N1 (stereo not given)
B = O=C1CCC(N2C(=O)c3cccc(OCCCC(=O)N4CCN(c5ncc(C(=O)Nc6ccc(OC(F)(F)Cl)cc6)cc5-c5ccn[nH]5)CC4)c3C2=O)C(=O)N1 (stereo not given)
Higher IC50 between A and B ? Identify your pick by its label. B
(B: 1120 nM, A: 172 nM)
